Details: buffer; pH 7.4; 200.0 µM
solubility kinetic values by entry

Previously resolved entries follow.
COc1ccc(NC(=O)c2cccnc2)cc1	> 34.2 µg/mL
Cc1ccc(NC(=O)CN2CCOCC2)cc1Cl	> 40.3 µg/mL
COc1cc(OC)cc(C(=O)Nc2nnc(-c3cccnc3)o2)c1	> 48.9 µg/mL
CCN(CC)c1ccc(/C=C(\C#N)C(N)=O)cc1	> 36.5 µg/mL
CCCc1cc(=O)[nH]c(SCC(=O)Nc2c(C)n(C)n(-c3ccccc3)c2=O)n1	> 62 µg/mL
Cc1ccc(S(=O)(=O)N2CCN(c3ccccc3)CC2)cc1C	< 0.4 µg/mL
Cc1cc(NC(=O)c2ccc([N+](=O)[O-])cc2)no1	< 0.2 µg/mL
Cc1ccc(S(=O)(=O)/N=C(/Nc2cccc(O)c2)c2ccccc2)cc1	> 55 µg/mL

Incoming: What does the data say about its solubility kinetic? Entry: CCOC(=O)c1sc(S(C)=O)c2c1CCc1conc1-2 (stereo not drawn)
Outgoing: > 46.7 µg/mL

Incoming: What does the data say about its solubility kinetic? Entry: "CCOc1ncccc1C(=O)N(CC)CC(=O)NCc1ccc(F)cc1"
Outgoing: > 53.9 µg/mL

Incoming: What does the data say about its solubility kinetic? Entry: Cc1c(NC(=O)C(C)OC(=O)c2ccccc2O)c(=O)n(-c2ccccc2)n1C (stereo not drawn)
Outgoing: > 59.3 µg/mL

Incoming: What does the data say about its solubility kinetic? Entry: "NC(=O)c1ccccc1NC(=O)c1ccc2ccccc2c1"
Outgoing: < 0.3 µg/mL

Incoming: What does the data say about its solubility kinetic? Entry: "O=C(OCc1cncs1)c1ccccc1"
Outgoing: > 32.9 µg/mL

Incoming: What does the data say about its solubility kinetic? Entry: "O=C(CCOc1ccccc1)Nc1ccc(Br)cc1"
Outgoing: < 0.7 µg/mL

###

Conditions: buffer; pH 7.4; 200.0 µM
RECORDED METRIC: solubility kinetic (µg/mL)
Report only the number, with the unit µg/mL understood.

COc1cc2c(cc1OC)CN(Cc1ccc(F)cc1)CC2	35.7
O=C(Nc1ccnc(-c2ccncc2)n1)c1ccc(F)cc1	0.4
CCC(C)c1ccc(NC(=S)NCc2ccccn2)cc1 (centres undefined)	38.5
CC(NC(=O)C1CCCC1)c1ccc(Br)cc1 (centres undefined)	33.4
Cc1cccnc1NC(=O)c1sc2ccccc2c1Cl	3
OCCC1CN(Cc2ccon2)CCN1CCc1ccccc1 (centres undefined)	42.3

Incoming: What does the data say about its solubility kinetic? Entry: "Cc1cc(C)cc(NC(=O)CCN2CCCC2)c1"
Outgoing: 35.3

Incoming: What does the data say about its solubility kinetic? Entry: "Cc1scc(C(=O)N2CCN(c3ccc(Cl)cc3)CC2)c1C"
Outgoing: 23.3

Incoming: What does the data say about its solubility kinetic? Entry: "Cc1nc(N)[nH]c(=O)c1CC(=O)OCCCl"
Outgoing: 30.4

Incoming: What does the data say about its solubility kinetic? Entry: "Nc1ccc(-c2nc(-c3ccccc3)nc3ccccc23)cc1"
Outgoing: 0.5

###

Conditions: buffer; pH 7.4; 200.0 µM
solubility kinetic values by entry
Report only the number, with the unit µg/mL understood.

COc1ccc(NC(=O)CN2C(=O)NC(C)(c3ccc4c(c3)OCO4)C2=O)cc1S(N)(=O)=O (centres undefined)	66.9
O=C(Nc1cccc(S(=O)(=O)N2CCCCCC2)c1)c1ccc(Cl)nc1	8.2
CCCCn1c(O)c(/C=C2\C=Nc3ccccc32)c(=O)[nH]c1=O	3.1
Cc1cc(Nc2cccc(Cl)c2)c2ccccc2n1	32.5

Incoming: What does the data say about its solubility kinetic? Entry: O=C(O)C1C2C=CC(C2)C1C(=O)NCc1ccc(Cl)cc1Cl (centres undefined)
Outgoing: 45.3

Incoming: What does the data say about its solubility kinetic? Entry: "Cc1cc(=S)c2cccc(C)c2[nH]1"
Outgoing: 26.5

###

Conditions: buffer; pH 7.4; 200.0 µM
RECORDED METRIC: log10 of solubility kinetic (log10 of the value in µg/mL)
A value of 2 here means solubility kinetic of 100 in µg/mL, since values are log10.

Previously resolved entries follow.
Cc1ccc(C)c(CSCc2nc3ccccc3[nH]2)c1	1.31
O=C(NC1C2CC3CC(C2)CC1C3)C1CCCCC1 (stereo not given)	0.20
O=C(NC12CC3CC(CC(C3)C1)C2)N1CCN(C2CCCCC2)CC1	1.63
COc1ccc(NC(=O)c2ccc(N3CCOCC3)nc2)cc1	0.80
Cc1cccc[n+]1CC(=O)Nc1ccccc1.[Cl-]	1.42

Incoming: What does the data say about its log10 of solubility kinetic? Entry: "O=C(CC1CCCCC1)NCc1nc(-c2ccccc2)no1"
Outgoing: 0.76

Incoming: What does the data say about its log10 of solubility kinetic? Entry: "C=CCN1C(=O)/C(=C/c2cc(C)n(-c3cccnc3)c2C)C(=O)NC1=S"
Outgoing: 1.11

Incoming: What does the data say about its log10 of solubility kinetic? Entry: "O=C(c1cc(-c2cccc(O)c2)on1)N1CCCC1"
Outgoing: 1.51

Incoming: What does the data say about its log10 of solubility kinetic? Entry: "Cc1ccc(-c2nc(-c3ccccn3)no2)cc1[N+](=O)[O-]"
Outgoing: 0.87

Incoming: What does the data say about its log10 of solubility kinetic? Entry: "C#CCNC(=O)c1cc2sccc2n1C"
Outgoing: 1.49

Incoming: What does the data say about its log10 of solubility kinetic? Entry: "Nc1nonc1OCCN1CCN(c2ccc([N+](=O)[O-])c3cccnc23)CC1"
Outgoing: 0.96

Incoming: What does the data say about its log10 of solubility kinetic? Entry: COc1ccc(NC(=O)C2CCCN(c3nc(C)cc(C)n3)C2)cc1 (stereo not given)
Outgoing: 0.15

###

Settings: buffer; pH 7.4; 200.0 µM
solubility kinetic values by entry

Previously resolved entries follow.
Cc1ccc(C(=O)Nc2sc3c(c2C(=O)O)CCC(C)C3)o1 (stereo unspecified)	> 0.0479 mg/mL
O=C(Nc1ccccc1C(F)(F)F)c1ccc2nccnc2c1	> 0.0476 mg/mL
Cc1ccc(O)c(NC(=O)c2cc(C)no2)c1	> 0.0348 mg/mL
O=C1CSC(c2cccnc2)N1c1ccc(Cl)cc1 (stereo unspecified)	> 0.0436 mg/mL
CCc1ccccc1NC(=O)NCc1cccnc1	> 0.0383 mg/mL
O=C1C2CCCN2C(=S)N1Cc1ccccc1 (stereo unspecified)	> 0.0369 mg/mL
Cl.Fc1ccc(CNC2CN3CCC2CC3)cc1 (stereo unspecified)	> 0.0461 mg/mL
CC(C)c1c(O)nc(SCC(=O)N2CCCCC2)[nH]c1=O	> 0.0467 mg/mL
CN(C)c1nc2c(c(=O)[nH]c(=O)n2C)n1CCCc1ccccc1	> 0.0491 mg/mL
COc1ccc(NC(=O)c2ccc(C)cc2)c[n+]1[O-]	> 0.0387 mg/mL

Incoming: What does the data say about its solubility kinetic? Entry: "COc1cccc(Oc2nc(-c3ccncc3)nc3ccccc23)c1"
Outgoing: < 0.0002 mg/mL

###

solubility kinetic values by entry
Conditions: buffer; pH 7.4; 200.0 µM

Previously resolved entries follow.
CCOC(=O)c1nc(Nc2ccc(OC)cc2)c2ccccc2n1	> 48.5 µg/mL
COc1ccc(C(=O)NCc2ccccn2)cc1[N+](=O)[O-]	> 43.1 µg/mL
CN1CC(=O)Nc2ccc([N+](=O)[O-])cc2C1=O	> 35.3 µg/mL
COc1cc2c(cc1OC)C(c1ccccc1)NCC2 (stereo not given)	> 40.4 µg/mL
C=CCNC(=O)[C@H]1N2C(=O)c3ccccc3C2SC1(C)C (stereo not given in full)	> 45.4 µg/mL
O=C(c1cc(-c2ccc(O)cc2)on1)N1CCCCCC1	> 42.9 µg/mL
CCOC(=O)CNc1nc(Cl)nc(NC(C)(C)C)n1	> 43.2 µg/mL
CCNC(=S)Nn1cnc2ccccc21	> 33 µg/mL
CC(C)(C)c1cc(NC(=O)c2ccco2)no1	> 35.1 µg/mL

Then there is this compound:
Incoming: What does the data say about its solubility kinetic? Entry: CC(Sc1nncs1)C(=O)NC1CCCCC1C (stereo not given)
Outgoing: > 42.8 µg/mL

###

Conditions: buffer; pH 7.4; 200.0 µM
RECORDED METRIC: solubility kinetic

Previously resolved entries follow.
Cc1cccc2c(=O)cc(C(F)(F)F)[nH]c12	> 34.1 µg/mL
Cc1nnc(SCc2nnc(-c3cccs3)o2)n1C	> 44 µg/mL

Incoming: What does the data say about its solubility kinetic? Entry: CC(OC(=O)c1ccc(NC(N)=O)cc1)C(=O)Nc1ccc2c(c1)OCCO2 (stereo not drawn)
Outgoing: > 57.8 µg/mL

Incoming: What does the data say about its solubility kinetic? Entry: "Cc1ccc2c(c1)sc1nc(=O)ccn12"
Outgoing: > 32.4 µg/mL

Incoming: What does the data say about its solubility kinetic? Entry: "Cc1cccc(NC(=O)CSc2nncn2-c2ccccn2)c1"
Outgoing: > 48.8 µg/mL

Incoming: What does the data say about its solubility kinetic? Entry: "COc1ccccc1CC(=O)N1CCN(c2ccc(F)cc2)CC1"
Outgoing: > 49.3 µg/mL

Incoming: What does the data say about its solubility kinetic? Entry: "CCOC(=O)c1c(-c2ccc(F)cc2)csc1/N=C/N(C)C"
Outgoing: > 48.1 µg/mL

Incoming: What does the data say about its solubility kinetic? Entry: "O=[N+]([O-])c1ccc(N2CCOCC2)cc1N1CCCCC1"
Outgoing: > 43.7 µg/mL
